Please provide measured MIC for the entries that follow.
system: E. faecalis (Ef); experiment: Broth microdilution minimum inhibitory concentration (MIC); type: cell-based; conditions: Enterococcus faecalis, E. faecalis; growth medium supplemented with sodium bicarbonate; read-out: Ef + bicarb MIC

# assay system E. faecalis (Ef): give MIC of C[C@@H]1CN(C(=O)Nc2ccn(-c3ccc(CCN4CCCC(N)CC4)cc3)c(=O)n2)CCN1C(=O)C(C)(C)N (stereo partly shown) [Compound 71]
< 8 µg/mL

Give MIC; test system E. faecalis (Ef); molecule CCN(C[C@H]1C[C@@H](N)C1)C(C)Cc1ccc(-n2ccc(NC(=O)N3CCN(C(=O)C(C)(C)N)CC3)nc2=O)cc1 (stereo partly shown) [Compound 161]
< 8 µg/mL

Write down the reported MIC (system: E. faecalis (Ef)) of CC(C)(N)C(=O)N1CCN(C(=O)Nc2ccn(-c3ccc(CCN4CCCC(N)CC4)c(C(F)(F)F)c3)c(=O)n2)CC1 (stereo not shown) [Compound 142]
< 8 µg/mL

Fill in MIC for CNC1CCCN(CCc2ccc(-n3ccc(NC(=O)N4CCN(C(=O)C(C)(C)N)CC4)nc3=O)cc2)CC1 (stereo not shown) [Compound 33] tested with E. faecalis (Ef).
> 32 µg/mL

Retrieve MIC on E. faecalis (Ef); query C[C@@](N)(CO)C(=O)N1CCN(C(=O)Nc2ccn(-c3ccc(CCN4CCCC(N)CC4)cc3)c(=O)n2)CC1 (stereo partly shown) [Compound 35]
< 8 µg/mL

Output reported MIC of the molecule CC(C)CN(Cc1ccc(-n2ccc(NC(=O)N3CCN(C(=O)C(C)(C)N)CC3)nc2=O)cc1)[C@H]1CC[C@H](N)CC1 [Compound 129] on E. faecalis (Ef).
< 8 µg/mL

Look up and report MIC, with E. faecalis (Ef) as system, for CC(Cc1ccc(-n2ccc(NC(=O)N3CCN(C(=O)C(C)(C)N)CC3)nc2=O)cc1)N[C@H]1CC[C@@H](N)C1 (stereo partly shown) [Compound 150]
> 32 µg/mL

* * *

test system: E. coli S30 extract (bacterial protein synthesis); experiment: E. coli S30 extract coupled transcription-translation luciferase assay (inhibition of bacterial protein synthesis); assay type: biochemical; conditions: % inhibition @ 1 μM, read-out: S30 IC50 (μM/% inhib.)
Exercise: for every item that follows, state its recorded IC50.

State, in one line, measured IC50 of CCN(Cc1ccc(-n2ccc(NC(=O)N3CCN(C(=O)[C@@H](C)N)CC3)nc2=O)cc1)C1CCC(N)CC1 (stereo partly shown)
0.5 to 1 µM

Quote IC50 reported for `CC(C)(N)C(=O)N1CCN(C(=O)Nc2ccn(-c3ccc(CNCC4(O)CNC4)cc3)c(=O)n2)CC1` please.
< 0.5 µM

Supply measured IC50 of C[C@](N)(CO)C(=O)N1CCN(C(=O)Nc2ccn(-c3ccc(CCN4CCCC(N)CC4)cc3)c(=O)n2)CC1 (stereo partly shown) in your reply.
< 0.5 µM

Write down IC50 measured for item CC(Cc1ccc(-n2ccc(NC(=O)N3CCN(C(=O)C(C)(C)N)CC3)nc2=O)cc1)N1CC[C@@H](CN)C1 (stereo partly shown)
< 0.5 µM

Answer with reported IC50 of `CC(C)(N)CC(=O)N1CCN(C(=O)Nc2ccn(-c3cccc(CN4CCC(N)CC4)c3)c(=O)n2)CC1`
> 1 µM

Please report IC50 for the following compound: CC(Cc1ccc(-n2ccc(NC(=O)N3CCN(C(=O)C(C)(C)N)CC3)nc2=O)cc1)N1CC[C@H](CN)C1 (stereo partly shown)
< 0.5 µM

Supply measured IC50 of `CC(C)(N)C(=O)N1CCN(C(=O)Nc2ccn(-c3ccc(CN4CC(C5CCNCC5)C4)cc3)c(=O)n2)CC1` in your reply.
< 0.5 µM

* * *

tested on: P. aeruginosa (Pa); test: Broth microdilution minimum inhibitory concentration (MIC); type: cell-based; details: Pseudomonas aeruginosa, P. aeruginosa; growth medium with sodium bicarbonate; read-out: Pa MIC + bicarb
Please go through the items and note down their MIC.

Find MIC for CC(CN1CC[C@@H](CN)C1)Oc1ccc(-n2ccc(NC(=O)N3CCN(C(=O)C(C)(C)N)CC3)nc2=O)cc1 (some centres unmarked) on P. aeruginosa (Pa) and write it down.
> 32 µg/mL

# lookup: P. aeruginosa (Pa) MIC, key = NC1CCCN(CCc2ccc(-n3ccc(NC(=O)N4CC5(CC(N)C5)C4)nc3=O)cc2)CC1 (centres unmarked)
> 32 µg/mL

Identify measured MIC obtained with P. aeruginosa (Pa) for `CC(C)(N)C(=O)N1CCN(C(=O)Nc2ccn(-c3ccc(CN4CC[C@@H](N)[C@H](O)C4)cc3)c(=O)n2)CC1` .
> 32 µg/mL

Report the value of MIC obtained on P. aeruginosa (Pa) for `CC(C)(N)C(=O)N1CCN(C(=O)Nc2ccn(-c3ccc(CC4(N5CCC(N)CC5)CC4)cc3)c(=O)n2)CC1` .
> 32 µg/mL

Give measured MIC for CC[C@@H]1CN(Cc2ccc(-n3ccc(NC(=O)N4CCN(C(=O)C(C)(C)N)CC4)nc3=O)cc2)CC[C@H]1N (stereo in doubt) (P. aeruginosa (Pa)).
> 32 µg/mL

Provide the reported MIC (system: P. aeruginosa (Pa)) for CC(Cc1ccc(-n2ccc(NC(=O)N3CCN(C(=O)C(C)(C)N)CC3)nc2=O)cc1)N(C)C[C@H]1CCC[C@H](N)C1 (some centres unmarked)
> 32 µg/mL

Look up and report measured MIC (P. aeruginosa (Pa)) for the following molecule: CC(C)(N)C(=O)N1CCN(C(=O)Nc2ccn(-c3ccc(CNC4CCC(N)CC4)c(Cl)c3)c(=O)n2)CC1 (centres unmarked)
> 32 µg/mL

State measured MIC of the molecule `CC(C)(N)C(=O)N1CCN(C(=O)Nc2ccn(-c3ccc(CN4CC[C@H](CN)C4)cc3)c(=O)n2)CC1` with P. aeruginosa (Pa).
> 32 µg/mL

Param request: MIC | system P. aeruginosa (Pa) | item CC(C)(N)C(=O)N1CCN(C(=O)Nc2ccn(-c3ccc(CCN[C@H]4CC[C@@H](CN)C4)cc3)c(=O)n2)CC1 (stereo in doubt)
> 32 µg/mL

State, for P. aeruginosa (Pa), measured MIC of the molecule listed here: CC(C)(N)C(=O)N1CCN(C(=O)Nc2ccn(-c3ccc(OCCN4CCCC(CN)C4)cc3)c(=O)n2)CC1 (centres unmarked)
> 32 µg/mL

Report its MIC with P. aeruginosa (Pa) as the test system: CC(COc1ccc(-n2ccc(NC(=O)N3CCN(C(=O)C(C)(C)N)CC3)nc2=O)cc1)N1CCCC(N)CC1 (centres unmarked)
> 32 µg/mL

Given CC(Cc1ccc(-n2ccc(NC(=O)N3CCN(C(=O)C(C)(C)N)CC3)nc2=O)cc1)NCC1CNC1 (centres unmarked) , report its MIC on P. aeruginosa (Pa).
> 32 µg/mL

Jot down MIC (P. aeruginosa (Pa)) of CCN(C[C@H]1CCC[C@H](N)C1)C(C)Cc1ccc(-n2ccc(NC(=O)N3CCN(C(=O)C(C)(C)N)CC3)nc2=O)cc1 (some centres unmarked) .
> 32 µg/mL

Give measured MIC for `CC1(CN)CCN(Cc2ccc(-n3ccc(NC(=O)N4CCN(C(=O)C(C)(C)N)CC4)nc3=O)cc2)CC1` (P. aeruginosa (Pa)).
> 32 µg/mL

* * *

Give measured MIC for each item. Keep answers brief.
system: A. baumannii (Ab); assay: Broth microdilution minimum inhibitory concentration (MIC); assay type: cell-based; conditions: Acinetobacter baumannii; A. baumannii; growth medium supplemented with sodium bicarbonate; read-out: Ab + bicarb MIC

Please give measured MIC of the following entry: `CCN(Cc1ccc(-n2ccc(NC(=O)N3CCN(C(=O)C(C)(C)N)CC3)nc2=O)cc1)[C@H]1CC[C@H](N)C1`
> 32 µg/mL

Tell us which MIC value is on record for `CC(C)(N)C(=O)N1CCN(C(=O)Nc2ccn(-c3ccc(C[C@H](N)C(=O)N4CC(N)C4)cc3)c(=O)n2)CC1`
> 32 µg/mL

Respond only with MIC recorded for `CC(C)(N)C(=O)N1CCN(C(=O)Nc2ccn(-c3ccc(CN[C@H]4CC[C@H](N)CC4)cc3)c(=O)n2)CC1`
> 32 µg/mL

* * *

Please go through the items and note down their MIC.
tested on: P. aeruginosa (Pa); assay: Broth microdilution minimum inhibitory concentration (MIC); type: cell-based; settings: Pseudomonas aeruginosa, P. aeruginosa; growth medium with sodium bicarbonate; read-out: Pa MIC + bicarb

Tell me MIC reported for CC(Cc1ccc(-n2ccc(NC(=O)N3CCN(C(=O)C(C)(C)N)CC3)nc2=O)cc1)N1CC[C@@H](CN)C1 (stereo partly shown)
8 to 32 µg/mL

Give a short answer stating reported MIC for C[C@](N)(CO)C(=O)N1CCN(C(=O)Nc2ccn(-c3ccc(CNC4CCC(N)CC4)cc3)c(=O)n2)CC1 (stereo partly shown) .
> 32 µg/mL

Look up and state reported MIC for CCN(Cc1ccc(-n2ccc(NC(=O)N3CCN(C(=O)C(C)(C)N)CC3)nc2=O)cc1C)C1CCC(N)CC1 (stereo not shown)
8 to 32 µg/mL

Specify MIC for NC1CCCN(CCc2ccc(-n3ccc(NC(=O)N4CC5(CCC5N)C4)nc3=O)cc2)CC1 (stereo not shown) and stop.
> 32 µg/mL

Name the recorded MIC of the compound listed here: CC(Cc1ccc(-n2ccc(NC(=O)N3CCN(C(=O)C(C)(C)N)CC3)nc2=O)cc1)N1CCC(N)CC1 (stereo not shown)
8 to 32 µg/mL

Specify measured MIC for `NC1CCN(Cc2ccc(-n3ccc(NC(=O)N4CC5(CC(N)C5)C4)nc3=O)cc2)CC1` .
> 32 µg/mL

Supply measured MIC of CC(COc1ccc(-n2ccc(NC(=O)N3CCN(C(=O)C(C)(C)N)CC3)nc2=O)cc1)N1CC[C@@H](CN)C1 (stereo partly shown) in your reply.
> 32 µg/mL

Values from patent US12503452B2
